Record: compiled Ki on Muscarinic acetylcholine receptor M1 (Homo sapiens, UniProt P11229) from multiple reports.
Molecular target: Muscarinic acetylcholine receptor M1 (Homo sapiens, UniProt P11229)
Sequence (P11229 whole entry): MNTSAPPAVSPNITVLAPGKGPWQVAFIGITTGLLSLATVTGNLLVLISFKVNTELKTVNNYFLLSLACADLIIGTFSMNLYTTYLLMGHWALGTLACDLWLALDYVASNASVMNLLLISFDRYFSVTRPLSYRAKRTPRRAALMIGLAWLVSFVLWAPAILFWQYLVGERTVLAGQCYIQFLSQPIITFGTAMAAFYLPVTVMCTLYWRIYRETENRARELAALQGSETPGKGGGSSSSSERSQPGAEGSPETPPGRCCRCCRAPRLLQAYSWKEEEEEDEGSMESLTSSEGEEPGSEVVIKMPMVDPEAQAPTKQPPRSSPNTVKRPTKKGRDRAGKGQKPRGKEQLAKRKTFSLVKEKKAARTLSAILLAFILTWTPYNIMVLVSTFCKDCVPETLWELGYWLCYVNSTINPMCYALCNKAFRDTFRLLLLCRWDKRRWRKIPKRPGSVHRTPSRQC
experimental.readout: Ki (nM)

O=C1CCc2ccccc2N1CCCN1CCC(CCCO)CC1 ... 2510

(I) CCCCCCCCCCCC(OC(=O)C(CCCCN(O)C(C)=O)NC(=O)c1coc(-c2ccccc2O)n1)C(C)C(=O)NC1CCCCN(O)C1=O (centres undefined)
(II) COc1ccc([S@+]([O-])c2ccc(C(=O)C3CCN(C4CCCCC4)CC3)cc2)cc1
(III) FC(F)(F)c1cc(Oc2nccc3occc23)ccc1-c1cccc2nccn12
(IV) CCOC(=O)c1c(C)[nH]c2ccc3c(c12)CN1CCc2cc(OC)ccc2C1O3 (centres undefined)
(V) CC1CCN(C(=O)CCN2CCCc3ccccc32)CC1
INPUT: Order the records by Ki, with each subsequent value no larger than the one before. Answer by listing the labels in the order asked for.
OUTPUT: III, IV, I, V, II
(III: 9000 nM, IV: 2290 nM, I: 490 nM, V: 302 nM, II: 69.5 nM)

(a) Cn1ccc(NC(=O)CCN2CCCc3ccccc32)n1
(b) CN1CCC[C@H]1[C@H]1C[S+]([O-])[C@](c2ccccc2)(C2CCCCC2)O1 (stereo in doubt; (-)-9)
INPUT: Of the two listed items, a and b , which carries the larger Ki figure? Kindly give the label for the entry you pick.
OUTPUT: a

(P) CN1CCC=C(c2nsnc2OCCCCCCCCCCCC2CCN(CCCN3C(=O)CCc4ccccc43)CC2)C1
(Q) CCN(CC)CCOCCOC(=O)C1(c2ccc(Cl)cc2)CCCC1
INPUT: Higher Ki between P and Q ? Returns: label corresponding to the selected item.
OUTPUT: Q
(Q: 75 nM, P: 11 nM)

(a) c1coc([C@@H]2CCCN2)c1
(b) O=C(NCC1CCNCC1)[C@H]1CCCN1C(=O)[C@@H]1C[C@@H](O)CN1C(=O)CC(c1ccc(F)cc1)(c1ccc(F)cc1)c1ccc(F)cc1
(c) CCN(CCCCC1CCN(CC(=O)N2c3ccccc3NC(=O)c3ccccc32)CC1)C(=O)c1cccc(I)c1
(d) C[N+]1(C)CCC[C@@H]1[C@@H]1C[S+]([O-])C(c2ccccc2)(c2ccccc2)O1.[I-] (stereo in doubt; (+)-11)
(e) Cc1cnc(C(=O)N[C@H]2CCOC[C@@H]2O)cc1Cc1ccc(-c2cscn2)cc1
INPUT: Reorder the items by Ki, least to greatest. Put the labels in the requested order and list them out.
OUTPUT: e, c, b, d, a

###

pKi: −log10 of the molar value.
pKi for Muscarinic acetylcholine receptor M1 (Homo sapiens, UniProt P11229), merged from several publications.
experimental.readout: pKi

Please review the following examples before continuing.
COc1ccc([S@+]([O-])c2ccc(C(C#N)N3CCN(C4CCCCC4)CC3)cc2)cc1 (some centres undefined) ... 6.60
COc1ccc(CCCN2CCC(CCC(=O)c3cc(Cl)c(N)c4c3OCCO4)CC2)cc1OC ... 5.80
O=C(Nc1ccc(F)cc1-c1ccc(F)c(Cl)c1)OC1CCNCC1 ... 8.55
COc1ccc(CCN(C(=O)OC2CCN(C)CC2)c2ccccc2)cc1OC ... 6.11
COc1ccc(S(=O)(=O)c2ccc(C(C#N)C3CCN(C4CCCCC4)CC3)cc2)cc1 (centres undefined) ... 7.79

(I) CN(C)CCC1=C(Cc2ccccn2)c2ccccc2C1
(II) NCCN1CCN(CCC(=O)NC2CCN(CC(=O)N3c4ccccc4NC(=O)c4ccccc43)CC2)CC1
INPUT: Please indicate which item has the smaller measured pKi: I versus II Answer = label.
OUTPUT: I
(I: 5.80, II: 6.44)

(P) FC(F)(F)c1cc(Oc2nccc3ccsc23)ccc1-c1cccc2nccn12
(Q) O=C(CCN1CCCc2ccccc21)NCc1cccs1
(R) CN1CCC(CNC(=O)[C@H]2CCCN2C(=O)[C@@H]2C[C@@H](O)CN2C(=O)CC(c2ccc(F)cc2)(c2ccc(F)cc2)c2ccc(F)cc2)CC1
(S) C=C(c1ccc(S(=O)(=O)c2ccc(OC)cc2)cc1)C1CCN(C2CCN(C(=O)C3CC3)CC2)CC1
(T) COc1ccc(S(=O)(=O)c2ccc(C(=O)C3CCN(C4CCCCC4)CC3)cc2)cc1
INPUT: Rank items: key pKi, increasing. A ranking is expressed here by listing the labels in the requested order.
OUTPUT: P, Q, R, S, T

###

Literature compilation of pKi measurements on Muscarinic acetylcholine receptor M1 (Homo sapiens).
Biological target: Muscarinic acetylcholine receptor M1 (Homo sapiens)
Sequence (P11229 whole entry): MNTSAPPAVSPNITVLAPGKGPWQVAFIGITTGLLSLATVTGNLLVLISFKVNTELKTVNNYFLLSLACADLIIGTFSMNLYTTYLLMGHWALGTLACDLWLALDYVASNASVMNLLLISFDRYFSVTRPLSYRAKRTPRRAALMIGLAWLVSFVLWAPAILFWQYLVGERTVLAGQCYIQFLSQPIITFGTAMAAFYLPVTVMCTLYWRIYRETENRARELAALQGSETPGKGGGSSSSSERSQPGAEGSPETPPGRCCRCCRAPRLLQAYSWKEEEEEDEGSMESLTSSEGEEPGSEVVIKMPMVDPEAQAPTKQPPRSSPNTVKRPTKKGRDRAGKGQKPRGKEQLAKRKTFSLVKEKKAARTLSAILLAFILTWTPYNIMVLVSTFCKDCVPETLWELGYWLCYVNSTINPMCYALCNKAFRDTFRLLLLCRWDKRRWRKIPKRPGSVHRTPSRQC
pKi: −log10 of the molar value.

See these solved cases before continuing.
O=C(CCC1=[N+]2C(C=C1)Cc1ccc(-c3cccs3)n1[B-]2(F)F)NCCN1CCN(CC(=O)N2c3ccccc3C(=O)Nc3cccnc32)CC1 (centres undefined) ... < 6.00
COc1ccc(NC(=O)c2ccc(-c3ccc(-c4noc(C)n4)cc3C)cc2)cc1N1CCN(C)CC1 ... < 6.00
COc1ccc(NC(=O)N2CCN(c3ccc(-c4ccccc4)cc3)CC2)cc1N1CCN(C)CC1 ... < 5.00

INPUT: Bench note: what pKi did `O=C(CN1CCc2ccc(Br)cc21)N1CCCCC1` show?
OUTPUT: < 4.00

###

pKi: −log10 of the molar value.
Hi, quick share: literature pKi data for Muscarinic acetylcholine receptor M1 (Homo sapiens), several sources combined.

A selection of reference data follows.
COc1ccccc1N1CCC(C(=O)Nc2ccc(OC)c(N3CCN(C)CC3)c2)CC1 ... < 5.00
CCN(CC)CCOCCOC(=O)C1(c2ccccc2)CC1 ... < 5.00

INPUT: Please give the measured pKi for this compound: `CN1CC(OC(=O)N(c2ccccc2)c2ccccc2)C1`
OUTPUT: < 6.00

###

Molecular target: Muscarinic acetylcholine receptor M1 (Homo sapiens, UniProt P11229)
Sequence (P11229 whole entry): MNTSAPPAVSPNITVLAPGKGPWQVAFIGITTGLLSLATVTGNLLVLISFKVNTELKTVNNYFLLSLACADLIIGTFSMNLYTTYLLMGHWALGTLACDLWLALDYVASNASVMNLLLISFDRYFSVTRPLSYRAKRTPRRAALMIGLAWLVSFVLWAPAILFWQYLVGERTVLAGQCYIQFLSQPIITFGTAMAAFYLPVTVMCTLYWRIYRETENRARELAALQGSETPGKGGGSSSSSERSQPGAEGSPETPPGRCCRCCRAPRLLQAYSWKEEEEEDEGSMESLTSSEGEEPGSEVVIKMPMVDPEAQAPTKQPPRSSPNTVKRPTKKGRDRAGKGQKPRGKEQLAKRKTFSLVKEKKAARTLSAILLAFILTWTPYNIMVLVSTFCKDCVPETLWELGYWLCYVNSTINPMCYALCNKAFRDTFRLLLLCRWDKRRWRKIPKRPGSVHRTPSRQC
pKi: −log10 of the molar value.
Kindly find below pKi information for Muscarinic acetylcholine receptor M1 (Homo sapiens, UniProt P11229) taken from the literature.

O=C(CN1CCCc2ccc(O)cc21)N1CCCCC1 ... < 4.00
CN1CCc2c(c3cccc4c3n2CCc2ccccc2-4)C1 ... < 5.00
NC(N)=NC(=O)c1ccc2c(c1)Cc1ccccc1-2 ... < 6.00

Okay, next one:
INPUT: Look up pKi for this compound: `O=C(NCOCCN1CCOCC1)C1(c2ccc(Cl)c(Cl)c2)CCCCC1`
OUTPUT: < 5.00
